# maps each entry to its pest or weed control at 250 g/ha
system: Lolium perenne (LOLPE); assay: Glasshouse assay for herbicidal activity (pre- and post-emergence), percentage phytotoxicity; assay type: in vivo; conditions: Lolium perenne, pre-emergence, 480 h, Rate 250 g/ha; pre-emergence; visual assessment 20 DAA; 100%=total damage, 0%=no damage; read-out: Pre-emergence herbicidal activity (percentage phytotoxicity) LOLPE PRE
Please state the figure in %; there is no need to write the unit.

Here is how some compounds turned out for pest or weed control at 250 g/ha.
Cc1cc(-c2ccc(F)cc2)cc(C)c1C1C(=O)CC(CC(=O)NC(C)(C)C#N)C1=O (centres unmarked) :: 80
Cc1cc(-c2ncc(Cl)cn2)cc(C)c1C1C(=O)CC(CC(=O)NCc2cccc(F)c2)C1=O (centres unmarked) :: 90
Cc1cc(-c2ncc(Cl)cn2)cc(C)c1C1=C(OC(=O)N2CCCC2)C(CC(=O)NC(C)(C)C)CC1=O (centres unmarked) :: 30
COCC(C)NC(=O)CC1CC(=O)C(c2c(C)cc(-c3ncc(F)cc3F)cc2C)C1=O (centres unmarked) :: 100
Cc1cc(-c2ccc(F)cn2)cc(C)c1C1C(=O)CC(CC(=O)NCc2cccc(Cl)c2)C1=O (centres unmarked) :: 90
Cc1cc(-c2ncc(F)cc2F)cc(C)c1C1C(=O)CC(CC(=O)NOCc2ccccc2)C1=O (centres unmarked) :: 80

Inquiry: Recall the recorded pest or weed control at 250 g/ha for C=CCNC(=O)CC1CC(=O)C(c2c(C)cc(-c3ncc(Cl)cn3)cc2C)C1=O (centres unmarked) with Lolium perenne (LOLPE) and state it.
Reply text: 100

Inquiry: Recall the recorded pest or weed control at 250 g/ha for Cc1cc(C)c(C2=C(OC(=O)C(C)(C)C)CC(CC(N)=O)C2=O)c(C)c1 (centres unmarked) with Lolium perenne (LOLPE) and state it.
Reply text: 80
